method summary: in vitro
stated conditions: African green monkey
metric name: CC50

Ask | Dear colleague, please send me the reported CC50 for Nc1ccn([C@@H]2O[C@H](CO)[C@@H](O)C2(F)F)c(=O)n1 when you can.
Reply | > 100 µM

Ask | Dear colleague, please send me the reported CC50 for COc1c(C)c2c(c(O)c1C/C=C(\C)CCC(=O)O)C(=O)OC2 when you can.
Reply | > 100 µM

Ask | Dear colleague, please send me the reported CC50 for CCCCCCCCCCCCCCCCOCCCOP(=O)(O)CO[C@H](CO)Cn1ccc(N)nc1=O when you can.
Reply | > 10 µM

Ask | Dear colleague, please send me the reported CC50 for O=c1[nH]c(=O)n([C@H]2C[C@H](O)[C@@H](CO)O2)cc1C(F)(F)F when you can.
Reply | > 100 µM
